protocol_description: Plasma elimination half-life was determined
Format: ADME, organism-based
assay_context: rat
reported_property: half-life (min)
Note: unit min is implicit; provide only the numeric part.

Consider "CN(Cc1n[nH]c(O)n1)[C@H](COCc1cc(C(F)(F)F)cc(C(F)(F)F)c1)c1ccccc1" . Its measured half-life is 48

====

protocol_description: Tmax was determined
Type: ADME, organism-based
assay_context: rat, in vivo
reported_property: Tmax
Give the number first and the unit second.

Value of measured Tmax for the entry "CN(Cc1n[nH]c(O)n1)[C@H](COCc1cc(C(F)(F)F)cc(C(F)(F)F)c1)c1ccccc1" : 30 min

====

measured_target: Neuromedin-K receptor (Homo sapiens)
Sequence (P29371 whole entry): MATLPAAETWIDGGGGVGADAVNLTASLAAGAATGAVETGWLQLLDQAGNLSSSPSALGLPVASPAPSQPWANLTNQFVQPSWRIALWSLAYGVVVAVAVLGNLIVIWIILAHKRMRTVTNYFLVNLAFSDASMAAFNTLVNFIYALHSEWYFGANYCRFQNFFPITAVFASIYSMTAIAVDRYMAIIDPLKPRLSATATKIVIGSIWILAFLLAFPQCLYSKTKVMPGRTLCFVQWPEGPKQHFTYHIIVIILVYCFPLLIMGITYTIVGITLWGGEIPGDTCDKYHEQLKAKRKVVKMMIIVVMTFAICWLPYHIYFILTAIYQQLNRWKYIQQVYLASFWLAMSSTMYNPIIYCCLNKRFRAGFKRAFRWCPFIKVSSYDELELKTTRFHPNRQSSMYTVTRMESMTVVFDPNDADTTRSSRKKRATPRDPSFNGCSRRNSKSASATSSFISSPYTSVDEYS
pIC50: −log10 of the molar value.
reported_property: pIC50

Entry "CN(Cc1n[nH]c(O)n1)[C@H](COCc1cc(C(F)(F)F)cc(C(F)(F)F)c1)c1ccccc1" , Neuromedin-K receptor (Homo sapiens) data, pIC50 value: < 6.00

Where do the numbers come from? From ChEMBL document CHEMBL1130974.
